The reported numbers originate from patent US20060134087A1.

- Target of assay: Human Neutrophil Elastase (human, UniProt P08246)
- Measurement description: pH elution of display phage from hNE beads, extended protocol
Overview of recorded Recovery Relative to BITI-E7-141 for various binders

Binder	Unit abbrev	Recovery Relative to BITI-E7-141
MUTT26A display phage (designed binder) RPDFCQLGYSAGPCVAMFPRYFYNGASMACQTFVYGGCMGNGNNFVTEKDCLQTCRGA	ratio	0.96
AMINO1 display phage (designed binder) KEDFCQLGYSAGPCVAMFPRYFYNGTSMACETFQYGGCMGNGNNFVTEKDCLQTCRGA	ratio	0.11
MA-BITI-E7-141 display phage (designed binder) RPDFCQLGYSAGPCVAMFPRYFYNGTSMACQTFVYGGCMGNGNNFVTEKDCLQTCRGA	ratio	1
MUT1619 display phage (designed binder) RPDFCQLGYSAGPCVGMFSRYFYNGTSMACQTFVYGGCMGNGNNFVTEKDCLQTCRGA	ratio	0.46
MA-BITI-E7-1222 display phage (designed binder) RPDFCQLGYSTGPCVAMFPRYFYNGTSMACETFQYGGCMGNGNNFVTEKDCLQTCRGA	ratio	0.21
